Below, each entry is listed with its recorded activity coefficient.
Experiment: activity coefficient (dimensionless); of the first substance listed, at infinite dilution; xn = mol fraction of the nth substance listed
Conditions: 358.25 K; 101 kPa; Liquid; Chromatography; x1 = 0

See these solved cases before continuing.
[[record]]
molecule = "C=CCCCCCC [oct-1-ene] + NCCCCCCCCCCCCN"
value_reported = 4.33

[[record]]
molecule = "CCCCCCCl [1-chlorohexane] + NCCCCCCCCCCCCN"
value_reported = 4.11

[[record]]
molecule = "CCCOC(C)=O [propyl ethanoate] + NCCCCCCCCCCCCN"
value_reported = 1.35

[[record]]
molecule = "CCCCO [butan-1-ol] + NCCCCCCCCCCCCN"
value_reported = 1.12

[[record]]
molecule = "CCCCCCCCCC [decane] + NCCCCCCCCCCCCN"
value_reported = 5.74


Notebook: CCOC(C)=O [ethyl acetate] + NCCCCCCCCCCCCN , activity coefficient read as 1.22

Notebook: C=CCCC [1-pentene] + NCCCCCCCCCCCCN , activity coefficient read as 3.89

---

Below, each entry is listed with its recorded activity coefficient.
Test: activity coefficient (dimensionless); of the first substance listed, at infinite dilution; xn = mol fraction of the nth substance listed
Settings: 358.25 K; 101 kPa; Liquid; Chromatography; x1 = 0
Answer with a number only.

Notebook: CCCCCC [hexane] + NCCCCCCCCCCCCN , activity coefficient read as 4.74

Notebook: CCO [ethanol] + NCCCCCCCCCCCCN , activity coefficient read as 0.952

Notebook: CO [methanol] + NCCCCCCCCCCCCN , activity coefficient read as 0.919

Notebook: c1ccccc1 [benzene] + NCCCCCCCCCCCCN , activity coefficient read as 2.06

Notebook: Cc1ccccc1 [toluene] + NCCCCCCCCCCCCN , activity coefficient read as 2.42

Notebook: ClCCl [dichloromethane] + NCCCCCCCCCCCCN , activity coefficient read as 1.12
